- Tested on: TK-10 renal
- Assay remarks: NCI tumour cell line growth inhibition, 48 h
Reported metric: log10 of TGI (log10 of the value in µM)
Heads up: the numbers are on a log10 scale; they represent TGI in µM.

Recorded result, O=C(Nc1cccc(C(F)(F)F)c1)c1ccc(NC2=C(Cl)C(=O)N(Cc3ccc(Cl)cc3Cl)C2=O)cc1 , log10 of TGI: 1.55

Record summary for C=C1C(=O)CC2C1CC(=O)/C(C)=C/CCC(C)(O)C2O (centres undefined) : reported log10 of TGI = 0.93

Entry COc1c(O)c2c(=O)cc3c4c5c(cc(=O)c6c(O)c(OC)c(CC(C)O)c(c(c1CC(C)O)c24)c65)OCO3 (centres undefined) ; log10 of TGI = 0.91

The recorded log10 of TGI for entry CCOC(=O)Nc1cc2c(c(N)n1)N=C(c1ccccc1)CO2 equals 1.29

// field: log10 of TGI; key: CN1CCC(=O)/C(=C/c2ccccc2)C1 ; value = 1.47

Entry CC(=O)NC1C(OCc2ccccc2)OC(CO)C(O)C1OCC(=O)N[C@@H](C)C(=O)N[C@H](CCC(=O)NCCCNc1c2ccccc2nc2cccc([N+](=O)[O-])c12)C(N)=O (some centres undefined) , log10 of TGI reported as 0.19

For reference, reported log10 of TGI for CCC[CH2][Sn]([CH2]CCC)([O]C(=O)c1ccc(OC)c(OC)c1OC)[O][Sn]([CH2]CCC)([CH2]CCC)[O]C(=O)c1ccc(OC)c(OC)c1OC stands at -0.15

----------
Give measured TGI for each item. Keep answers brief.
- System: SNB-19 CNS
- Assay remarks: NCI tumour cell line growth inhibition, 48 h

CCOS(C)(=O)=O has a reported TGI of > 100 µM

TGI recorded for this compound, COc1cc(OC)c2c(=O)cc(-c3ccc(OC)c(OC)c3OC)oc2c1 , is > 100 µM

Entry O=[N+]([O-])C(=C(Nc1cccc2cccnc12)Nc1cccc2cccnc12)C(Cl)=C(Cl)Cl , TGI reported as > 100 µM

TGI for Cc1nn(-c2ccccc2)c2c1C(c1cc3ccccc3nc1Cl)NC(=O)N2 (configuration not stated) is 48.1 µM

Sample Nc1ccc(N=Nc2c(S(=O)(=O)O)cc3ccccc3c2S(=O)(=O)O)cc1 ; TGI observed: > 100 µM

TGI recorded for this compound, O=c1[nH][nH]c(=O)n1CCCCCCn1c(=O)[nH][nH]c1=O , is > 100 µM

Field TGI (entry NCCCN1c2ccccc2Sc2ccc(Cl)cc21 ) reads > 10 µM

----------
- Tested on: HOP-92 NSCLC
- Assay remarks: NCI tumour cell line growth inhibition, 48 h
Please respond with reported TGI for every item in the list.

Given item C=C(C(=O)OCC)C(=O)OCC , the value recorded as its TGI is > 100 µM

Noted for N#CNC(=NCc1ccccc1)N(Cc1ccccc1)Cc1ccccc1 : its TGI reads > 31.6 µM

So for O=C1OCC/C1=N/O , the logged TGI turned out to be > 100 µM

Lab note: CCCCCCCCCCCC[S+](C)C gave TGI of 9.48 µM

Recorded TGI (compound CC12CCC(=O)C[C@H]1CCC(OC=O)C2Br (some centres not stated) ): > 100 µM

Sure, the documented TGI for O=C(O)CN1CCNCCN(CC(=O)O)CCN(CC(=O)O)CCNCC1 is > 100 µM

The reported value for CC(NCCC(c1ccccc1)c1ccccc1)c1ccccc1 (configuration not stated) in terms of TGI is 3.56 µM

----------
- Test system: ACHN renal
- Assay remarks: NCI tumour cell line growth inhibition, 48 h
Please respond with reported TGI for every item in the list.

Measured TGI of S=C1NC2=C(CSC/C2=C\c2cccc(Br)c2)C(c2cccc(Br)c2)N1 (stereo not given) : > 100 µM

In plain terms, Cc1ccc(C2=CC(=O)OC(C[P+](c3ccccc3)(c3ccccc3)c3ccccc3)(c3ccccc3)O2)cc1 (stereo not given) has a documented TGI of 39.8 µM

// TGI lookup, compound = CC(=O)Nc1ccc(-c2csc(Nc3cccc(-c4csc(C)n4)c3)n2)cc1 , result: 22.6 µM

The compound listed as COC(=O)c1ccc2c(c1)C(=O)c1c-2n(CCCN=[N+]=[N-])c(=O)c2cc(OC)c(OC)cc12 has a reported TGI of > 100 µM

// TGI value for O=C(c1ccco1)c1c(C(F)(F)F)nc2ccc(Cl)cc2[n+]1[O-] : > 100 µM

Record COc1ccc(CCN(C)C2CCC(C#N)(c3ccc(OC)c(OC)c3)CC2)cc1OC (stereo not given) . Reported TGI: > 100 µM

Given item C=C(C(=O)OCC)C(=O)OCC , the value recorded as its TGI is > 100 µM

The recorded TGI for entry Cc1cc2c(=O)c3ccccc3[nH]c2c(C(N)=O)c1C equals > 100 µM

Noted for O=C(Nc1cccc(C(F)(F)F)c1)c1ccc(NC2=C(Cl)C(=O)N(Cc3ccc(Cl)cc3Cl)C2=O)cc1 : its TGI reads 46.1 µM

Short answer for O=C(CC1C(=O)Nc2ccccc2S1=O)Nc1cc(Cl)ccc1Cl (stereo not given) : TGI was > 100 µM

----------
- Test system: SK-MEL-28 melanoma
- Assay remarks: NCI tumour cell line growth inhibition, 48 h
Reported metric: TGI

TGI value, target or system SK-MEL-28 melanoma, for COc1cnc2c(c1)C(=O)c1c-2n(CCCN2CCOCC2)c(=O)c2cc(Cl)ccc12 : > 100 µM

Field TGI (SK-MEL-28 melanoma), entry CCCCCCCCCCCCCCCCNc1cccc2ccccc12 : > 100 µM

Record for CC(C)C1=Cc2ccc3c(c2C(=O)C1=O)CCCC3(C)C under target or system SK-MEL-28 melanoma: TGI reported as 13.1 µM

Reported TGI (SK-MEL-28 melanoma) for entry COc1cc(Cl)cc(-c2nn(-c3cccc(NC(=O)c4ccc(N5CCOCC5)c(C(F)(F)F)c4)c3)cc2-c2ccncc2)c1 is > 100 µM

The value of TGI recorded for COCC(OC)C(CC=C(C#N)C#N)OC (stereo not given) when tested on SK-MEL-28 melanoma reads > 100 µM

Bench note, SK-MEL-28 melanoma: Cc1nc(N)sc1N=Nc1ccccc1Br , TGI reads > 88.1 µM

Summary: O=C(Nc1ccc(Br)cc1F)c1cc(Cl)ccc1O , SK-MEL-28 melanoma, TGI = 2.07 µM

Given the compound CNCCOC(=O)/C=C1\CC[C@H]2[C@@H]([C@@H](O)C(=O)[C@@H]3[C@]2(C)CC[C@H](O)[C@]3(C)C(=O)OC)[C@H]1C and test system SK-MEL-28 melanoma, the measured TGI is 2.61 µM

# TGI measured on SK-MEL-28 melanoma for item Cn1c(SCc2ccc(F)cc2)nnc1C12CC3CC(CC(C3)C1)C2 = 86.2 µM

# CSC1=N/C(=C\c2ccc(C)cc2)C(=O)N1CN1CCCCC1 with SK-MEL-28 melanoma: TGI is > 100 µM

----------
Answer each item with its documented TGI.
- Test system: DU-145 prostate
- Assay remarks: NCI tumour cell line growth inhibition, 48 h

Just so you know, measured TGI for COC(=O)C(Cc1ccc2c(c1)CCC2)Cc1ccc2c(c1)CCC2 came out at > 100 µM

Measured TGI of CSC1=N/C(=C\c2ccc(C)cc2)C(=O)N1CN1CCCCC1 : > 100 µM

Reported TGI ( C[C@@H]1C[C@@H]([C@@H](CC2CC(=O)NC(=O)C2)OC(=O)CC(=O)c2ccccc2)C(=O)[C@@H](C)C1 ) = > 33.3 µM

response.value for O=C(O)CN1CCNCCN(CC(=O)O)CCN(CC(=O)O)CCNCC1 (field: TGI) = > 100 µM

# TGI of COc1ccc(-c2nnc3n(C)c(=O)c4ccccc4n23)cc1N = > 100 µM

----------
- Test system: UO-31 renal
- Assay remarks: NCI tumour cell line growth inhibition, 48 h
For each of the compounds below, state its TGI.

The compound listed as S=c1c2cn[nH]c2nc2scc(-c3ccc(Cl)cc3)n12 has a reported TGI of 41.8 µM

Per the records, this compound ( O=C(/C=C/c1ccccc1)Oc1ccc(C(=O)/C=C/c2ccccc2)cc1 ) has TGI equal to 15.3 µM

Lookup result for Nc1ccc(N=Nc2c(S(=O)(=O)O)cc3ccccc3c2S(=O)(=O)O)cc1 ; measured TGI: > 100 µM

Entry O=C(OC1CCC(=C2SCCCS2)[C@H]1C1SCCCS1)c1ccccc1 (stereo partly drawn) ; TGI = > 100 µM

TGI for O=C(/C(=C/c1ccc(Cl)cc1)c1ccccc1)c1ccccc1 is > 100 µM

Memo: CC12CCC(=O)C[C@H]1CCC(OC=O)C2Br (stereo partly drawn) , reported TGI: > 100 µM

Cc1ccc(/C=N\NC2c3cc(Cl)ccc3Nc3nc(=O)[nH]c(C)c32)cc1 (stereo not drawn) has a reported TGI of > 100 µM

Field TGI (entry C/C(N=NC(=S)N1CC2CCC(CC2)C1)=C1\C=CC=CN1O ) reads 43 µM

Looking up CCN(CC)CCNc1nc(N)c(C#N)c(C#N)c1C#N , I found its TGI recorded as > 10 µM

Documented TGI of O=c1oc2cc(O)ccc2c(O)c1C(c1ccccc1)c1c(O)c2ccc(O)cc2oc1=O : > 100 µM

# compound O=[N+]([O-])c1ccc2occ3c2c1CCC3 ; its TGI = > 100 µM

Noted for O=C(O)CCNc1ncnc2nc[nH]c12 : its TGI reads > 100 µM

Lab book: TGI of CC1(C)COC(c2cccc3c2C(=O)c2cccc(Cl)c2-3)=N1 noted as > 100 µM

Lab book: TGI of O=[N+]([O-])C(=C(Nc1cccc2cccnc12)Nc1cccc2cccnc12)C(Cl)=C(Cl)Cl noted as > 100 µM

For reference, reported TGI for COC(=O)/C(=N\NC(N)=S)C(C(=O)OC)C(=O)C(=O)Nc1ccc(C)cc1 (stereo not drawn) stands at > 100 µM

The compound listed as COc1cnc2c(c1)C(=O)c1c-2n(CCCN2CCOCC2)c(=O)c2cc(Cl)ccc12 shows TGI equal to > 100 µM

Notebook: O=C(NCP(=O)(Oc1ccccc1)Oc1ccccc1)OCc1ccccc1 , TGI read as > 100 µM

So, CC(NC(=O)Cc1ccccc1)NC(=O)C(C)C(=O)Nc1ccccc1 (stereo not drawn) ? Its TGI was > 100 µM

Entry source: PubChem BioAssay (NCI)
